measured-on: CYP3A4 (Homo sapiens, UniProt P08684)
Sequence (P08684 whole entry): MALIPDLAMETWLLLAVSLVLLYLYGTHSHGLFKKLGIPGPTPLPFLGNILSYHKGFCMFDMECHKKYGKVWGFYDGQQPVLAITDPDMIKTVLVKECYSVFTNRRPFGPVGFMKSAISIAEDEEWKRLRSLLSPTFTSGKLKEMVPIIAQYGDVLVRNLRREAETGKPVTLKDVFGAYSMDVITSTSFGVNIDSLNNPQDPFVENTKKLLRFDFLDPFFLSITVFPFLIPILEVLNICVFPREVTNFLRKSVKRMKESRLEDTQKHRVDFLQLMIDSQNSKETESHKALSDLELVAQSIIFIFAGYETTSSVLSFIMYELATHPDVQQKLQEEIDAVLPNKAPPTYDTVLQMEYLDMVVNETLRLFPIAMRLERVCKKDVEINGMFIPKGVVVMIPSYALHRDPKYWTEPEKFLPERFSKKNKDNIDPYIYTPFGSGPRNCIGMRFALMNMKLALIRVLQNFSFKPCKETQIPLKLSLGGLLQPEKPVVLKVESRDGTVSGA
experiment-summary: Determination of compound Kiapp against recombinant CYP3A4 enzyme (BFC fluorescent substrate)
Format: biochemical
condition-context: Super. enzyme preparation, read-out: Kiapp (BFC, Super.)
reported-property: pKi
Give bare numbers, as −log10 of the molar value.

Example results:
>>> df
                                   compound                            measured_on  reported_property  endpoint_value
0  Cc1cccc(CNC(=O)c2ccccc2S(=O)(=O)Nc2cccnc2)c1  CYP3A4 (Homo sapiens, UniProt P08684)                pKi            8.39
1  COc1cncc(NS(=O)(=O)c2ccccc2C(=O)NCCOc2ccccc2)c1  CYP3A4 (Homo sapiens, UniProt P08684)                pKi            7.74
2  CCCN(CC1CC1)C(=O)c1ccccc1S(=O)(=O)N(C)c1cccnc1  CYP3A4 (Homo sapiens, UniProt P08684)                pKi            7.21
3  CC(C)(NC(=O)c1ccccc1S(=O)(=O)Nc1cccnc1)C1CC1  CYP3A4 (Homo sapiens, UniProt P08684)                pKi            7.36
4  O=C(NC1Cc2ccccc2C1)c1ccccc1S(=O)(=O)Nc1cccnc1  CYP3A4 (Homo sapiens, UniProt P08684)                pKi            8.04

Value sought for every listed compound: pKi.
1. CCCCN(C)C(=O)c1ccccc1S(=O)(=O)Nc1cncc(C)c1
2. COc1cncc(NS(=O)(=O)c2ccccc2C(=O)NCc2ccc(F)c(Cl)c2)c1

7.65
8.79

Value sought for every listed compound: pKi.
1. COc1cncc(NS(=O)(=O)c2ccccc2C(=O)NCCN2CCCCC2)c1
2. COc1cncc(NS(=O)(=O)c2ccc(OC3CCNCC3)cc2C(=O)N(C)C(C)C)c1
3. COCCN(C)C(=O)c1ccccc1S(=O)(=O)Nc1cncc(C)c1
4. COc1ccncc1NS(=O)(=O)c1ccccc1C(=O)N(C)Cc1ccccc1F
5. COc1cncc(NS(=O)(=O)c2ccc(OC3CCNCC3)cc2C(=O)NCc2ccc(F)cc2)c1

6.67
7.07
7.00
7.51
8.01

Value sought for every listed compound: pKi.
1. CCOCCNC(=O)c1ccccc1S(=O)(=O)Nc1cnccc1OC
2. COc1cncc(NS(=O)(=O)c2ccccc2C(=O)NCCc2ccc(F)cc2F)c1
3. COc1ccncc1NS(=O)(=O)c1ccccc1C(=O)NCCc1ccccc1Cl
4. COc1ccncc1NS(=O)(=O)c1ccccc1C(=O)NCc1ccc(F)c(C(F)(F)F)c1
5. COc1cncc(NS(=O)(=O)c2ccccc2C(=O)NCc2ccc(Cl)cc2F)c1

[6.49, 8.30, 8.04, 8.39, 8.04]

Value sought for every listed compound: pKi.
1. Cc1cncc(NS(=O)(=O)c2ccccc2C(=O)NCCc2ccccc2Cl)c1
2. CC1CCN(CC(C)(C)NC(=O)c2ccccc2S(=O)(=O)Nc2cccnc2)CC1

1. 8.59
2. 6.18

Value sought for every listed compound: pKi.
1. COc1cncc(NS(=O)(=O)c2ccccc2C(=O)NCc2c(F)ccc(C)c2F)c1
2. Cc1ccccc1CCNC(=O)c1ccccc1S(=O)(=O)Nc1cccnc1
3. COc1cncc(NS(=O)(=O)c2ccccc2C(=O)NCc2ccc(C)c(Cl)c2)c1
4. CCOc1cncc(NS(=O)(=O)c2ccccc2C(=O)NC2CC2)c1
5. O=C(c1ccccc1S(=O)(=O)Nc1cncc(Br)c1)N1CCCCC1

1: 8.15; 2: 8.62; 3: 8.57; 4: 6.82; 5: 6.49

Value sought for every listed compound: pKi.
1. COc1ccc(CNC(=O)c2ccccc2S(=O)(=O)Nc2cncc(C)c2)cc1
2. COc1cncc(NS(=O)(=O)c2ccccc2C(=O)NCC2CCCCC2)c1
3. COc1cncc(NS(=O)(=O)c2ccccc2C(=O)NCc2ccc(Cl)c(F)c2)c1
4. CCCCCNC(=O)c1ccccc1S(=O)(=O)Nc1cncc(OC)c1
5. CCCCN(C)C(=O)c1ccccc1S(=O)(=O)Nc1cnccc1OCC
6. Cc1cncc(NS(=O)(=O)c2ccccc2C(=O)NCCc2ccccc2C)c1
7. COc1cncc(NS(=O)(=O)c2ccccc2C(=O)NC(C)CC(C)C)c1 (centres unmarked)
8. Cc1ccccc1CCNC(=O)c1ccccc1S(=O)(=O)N(C)c1cccnc1

1. 7.38
2. 8.00
3. 8.08
4. 7.75
5. 8.05
6. 8.14
7. 7.90
8. 8.07

Value sought for every listed compound: pKi.
1. CCOc1ccncc1NS(=O)(=O)c1ccccc1C(=O)N(C)Cc1ccc(F)c(F)c1
2. COc1cncc(NS(=O)(=O)c2ccccc2C(=O)N2CCCC2)c1
3. O=C(NCCc1ccccc1)c1ccccc1S(=O)(=O)Nc1cccnc1

1. 8.27
2. 7.27
3. 8.25
